Cited source for all entries: the supplement of paper PMC10307832

Test system: ABC-1
Protocol Summary: relative viability (nuclei count vs DMSO), 5 days (fraction); higher = more cells survive
Recorded Conditions: first compound 0.005 µM
Metric: relative viability
Give your answer as a number; write no unit.

# query: relative viability of entry Nc1ccn([C@@H]2O[C@H](CO)[C@@H](O)[C@@H]2O)c(=O)n1 [Cytarabine] + Nc1ncn([C@H]2C[C@H](O)[C@@H](CO)O2)c(=O)n1 [Decitabine] (partner 2 µM)
1.13

# query: relative viability of entry COc1cc2nccc(Oc3ccc(NC(=O)Nc4cc(C)on4)c(Cl)c3)c2cc1OC [Tivozanib] + Cc1nc(NC(=O)N2CCC[C@H]2C(N)=O)sc1-c1ccnc(C(C)(C)C(F)(F)F)c1 [Alpelisib] (partner 2 µM)
0.971

# query: relative viability of entry Nc1ccn([C@@H]2O[C@H](CO)[C@@H](O)[C@@H]2O)c(=O)n1 [Cytarabine] + CC(=O)c1c(C)c2cnc(Nc3ccc(N4CCNCC4)cn3)nc2n(C2CCCC2)c1=O [Palbociclib] (partner 0.5 µM)
0.49

# query: relative viability of entry Nc1ccn([C@@H]2O[C@H](CO)[C@@H](O)[C@@H]2O)c(=O)n1 [Cytarabine] + O=C(CCCCCCC(=O)Nc1ccccc1)NO [Vorinostat] (partner 1 µM)
0.934

# query: relative viability of entry Nc1ccn([C@@H]2O[C@H](CO)[C@@H](O)[C@@H]2O)c(=O)n1 [Cytarabine] + NC(=O)Nc1cc(-c2cccc(F)c2)sc1C(=O)N[C@H]1CCCNC1 [AZD7762] (partner 0.2 µM)
0.626

# query: relative viability of entry Nc1ccn([C@@H]2O[C@H](CO)[C@@H](O)[C@@H]2O)c(=O)n1 [Cytarabine] + Cc1nc(Nc2ncc(C(=O)Nc3c(C)cccc3Cl)s2)cc(N2CCN(CCO)CC2)n1 [Dasatinib] (partner 0.075 µM)
0.501

# query: relative viability of entry COc1cc2nccc(Oc3ccc(NC(=O)Nc4cc(C)on4)c(Cl)c3)c2cc1OC [Tivozanib] + Cc1nc(Nc2ncc(C(=O)Nc3c(C)cccc3Cl)s2)cc(N2CCN(CCO)CC2)n1 [Dasatinib] (partner 0.075 µM)
0.649

# query: relative viability of entry COc1cc2nccc(Oc3ccc(NC(=O)Nc4cc(C)on4)c(Cl)c3)c2cc1OC [Tivozanib] + CC(=O)c1c(C)c2cnc(Nc3ccc(N4CCNCC4)cn3)nc2n(C2CCCC2)c1=O [Palbociclib] (partner 0.5 µM)
0.638

* * *

Test system: LU99A
Protocol Summary: relative viability (nuclei count vs DMSO), 5 days (fraction); higher = more cells survive
Recorded Conditions: first compound 0.01581 µM
Metric: relative viability
Give your answer as a number; write no unit.

# query: relative viability of entry COc1cc2nccc(Oc3ccc(NC(=O)Nc4cc(C)on4)c(Cl)c3)c2cc1OC [Tivozanib] + Cc1nc(Nc2ncc(C(=O)Nc3c(C)cccc3Cl)s2)cc(N2CCN(CCO)CC2)n1 [Dasatinib] (partner 0.075 µM)
0.599

# query: relative viability of entry COc1cc2nccc(Oc3ccc(NC(=O)Nc4cc(C)on4)c(Cl)c3)c2cc1OC [Tivozanib] + CC(=O)Nc1cccc(-n2c(=O)n(C3CC3)c(=O)c3c(Nc4ccc(I)cc4F)n(C)c(=O)c(C)c32)c1 [Trametinib] (partner 0.02 µM)
0.496

# query: relative viability of entry COc1cc2nccc(Oc3ccc(NC(=O)Nc4cc(C)on4)c(Cl)c3)c2cc1OC [Tivozanib] + Cc1cc(Nc2cc(N3CCN(C)CC3)nc(Sc3ccc(NC(=O)C4CC4)cc3)n2)n[nH]1 [Tozasertib] (partner 0.1 µM)
0.279

# query: relative viability of entry COc1cc2nccc(Oc3ccc(NC(=O)Nc4cc(C)on4)c(Cl)c3)c2cc1OC [Tivozanib] + CC(C)C[C@H](NC(=O)[C@H](Cc1ccccc1)NC(=O)c1cnccn1)B(O)O [Bortezomib] (partner 0.002 µM)
1.07

* * *

System: NCI-H460
Protocol Summary: relative viability (nuclei count vs DMSO), 5 days (fraction); higher = more cells survive
Recorded Conditions: first compound 0.1581 µM
Metric: relative viability
Give your answer as a number; write no unit.

# query: relative viability of entry Nc1ccn([C@@H]2O[C@H](CO)[C@@H](O)[C@@H]2O)c(=O)n1 [Cytarabine] + CCNC(=O)c1noc(-c2cc(C(C)C)c(O)cc2O)c1-c1ccc(CN2CCOCC2)cc1 [Luminespib] (partner 0.01 µM)
0.0172

# query: relative viability of entry COc1cc2nccc(Oc3ccc(NC(=O)Nc4cc(C)on4)c(Cl)c3)c2cc1OC [Tivozanib] + CS(=O)(=O)N1CCN(Cc2cc3nc(-c4cccc5[nH]ncc45)nc(N4CCOCC4)c3s2)CC1 [Pictilisib] (partner 1 µM)
0.253

# query: relative viability of entry COc1cc2nccc(Oc3ccc(NC(=O)Nc4cc(C)on4)c(Cl)c3)c2cc1OC [Tivozanib] + C[C@@H](Oc1cc(-c2cnn(C3CCNCC3)c2)cnc1N)c1c(Cl)ccc(F)c1Cl [Crizotinib] (partner 1 µM)
0.935

# query: relative viability of entry Nc1ccn([C@@H]2O[C@H](CO)[C@@H](O)[C@@H]2O)c(=O)n1 [Cytarabine] + Cc1nc(NC(=O)N2CCC[C@H]2C(N)=O)sc1-c1ccnc(C(C)(C)C(F)(F)F)c1 [Alpelisib] (partner 2 µM)
0.0355

* * *

System: HCC-44
Protocol Summary: relative viability (nuclei count vs DMSO), 5 days (fraction); higher = more cells survive
Recorded Conditions: first compound 500 µM
Metric: relative viability
Give your answer as a number; write no unit.

# query: relative viability of entry O=C(O)CCCCC(CCSCc1ccccc1)SCc1ccccc1 (stereo unspecified) [CPI-613] + COc1cccc2cc(-c3nc([C@H]4CC[C@H](C(=O)O)CC4)n4ncnc(N)c34)[nH]c12 [OSI-027] (partner 0.5 µM)
0.0788

# query: relative viability of entry O=C(O)CCCCC(CCSCc1ccccc1)SCc1ccccc1 (stereo unspecified) [CPI-613] + Nc1ncn([C@H]2C[C@H](O)[C@@H](CO)O2)c(=O)n1 [Decitabine] (partner 2 µM)
0.779

# query: relative viability of entry O=C(O)CCCCC(CCSCc1ccccc1)SCc1ccccc1 (stereo unspecified) [CPI-613] + O=C(c1cc(Cc2n[nH]c(=O)c3ccccc23)ccc1F)N1CCN(C(=O)C2CC2)CC1 [Olaparib] (partner 8 µM)
0.469

# query: relative viability of entry O=C(O)CCCCC(CCSCc1ccccc1)SCc1ccccc1 (stereo unspecified) [CPI-613] + CS(=O)(=O)CCNCc1ccc(-c2ccc3ncnc(Nc4ccc(OCc5cccc(F)c5)c(Cl)c4)c3c2)o1 [Lapatinib] (partner 2 µM)
0.0306

# query: relative viability of entry O=C(O)CCCCC(CCSCc1ccccc1)SCc1ccccc1 (stereo unspecified) [CPI-613] + O=C(CCCCCCC(=O)Nc1ccccc1)NO [Vorinostat] (partner 1 µM)
0.265

# query: relative viability of entry O=C(O)CCCCC(CCSCc1ccccc1)SCc1ccccc1 (stereo unspecified) [CPI-613] + N=C(N)NC(=N)NCCc1ccccc1 [Phenformin] (partner 250 µM)
0.248

* * *

Provide the reported relative viability of each item.
System: NCI-H322M
Protocol Summary: relative viability (nuclei count vs DMSO), 5 days (fraction); higher = more cells survive
Recorded Conditions: first compound 0.253 µM
Give your answer as a number; write no unit.

# query: relative viability of entry O=c1[nH]c2ccccc2n1C1CCN(CCCC(c2ccc(F)cc2)c2ccc(F)cc2)CC1 [Pimozide] + Nc1nc2[nH]cc(CCc3ccc(C(=O)N[C@@H](CCC(=O)O)C(=O)O)cc3)c2c(=O)[nH]1 [Pemetrexed] (partner 0.2 µM)
0.668

# query: relative viability of entry O=c1[nH]c2ccccc2n1C1CCN(CCCC(c2ccc(F)cc2)c2ccc(F)cc2)CC1 [Pimozide] + CCNC(=O)c1noc(-c2cc(C(C)C)c(O)cc2O)c1-c1ccc(CN2CCOCC2)cc1 [Luminespib] (partner 0.01 µM)
0.899

# query: relative viability of entry Cc1cnc(-c2cnc(NCCNc3ccc(C#N)cn3)nc2-c2ccc(Cl)cc2Cl)[nH]1 + C[C@@H](Oc1cc(-c2cnn(C3CCNCC3)c2)cnc1N)c1c(Cl)ccc(F)c1Cl [Crizotinib] (partner 1 µM)
0.81

# query: relative viability of entry Cc1cnc(-c2cnc(NCCNc3ccc(C#N)cn3)nc2-c2ccc(Cl)cc2Cl)[nH]1 + O=C(c1cc(Cc2n[nH]c(=O)c3ccccc23)ccc1F)N1CCN(C(=O)C2CC2)CC1 [Olaparib] (partner 8 µM)
0.733

# query: relative viability of entry O=c1[nH]c2ccccc2n1C1CCN(CCCC(c2ccc(F)cc2)c2ccc(F)cc2)CC1 [Pimozide] + CC(=O)Nc1cccc(-n2c(=O)n(C3CC3)c(=O)c3c(Nc4ccc(I)cc4F)n(C)c(=O)c(C)c32)c1 [Trametinib] (partner 0.02 µM)
0.505

# query: relative viability of entry O=c1[nH]c2ccccc2n1C1CCN(CCCC(c2ccc(F)cc2)c2ccc(F)cc2)CC1 [Pimozide] + C[C@@H](Oc1cc(-c2cnn(C3CCNCC3)c2)cnc1N)c1c(Cl)ccc(F)c1Cl [Crizotinib] (partner 1 µM)
0.805

# query: relative viability of entry Cc1cnc(-c2cnc(NCCNc3ccc(C#N)cn3)nc2-c2ccc(Cl)cc2Cl)[nH]1 + C[C@]1(O)C[C@@H](c2nc(-c3ccc4ccc(-c5ccccc5)nc4c3)c3c(N)nccn32)C1 [Linsitinib] (partner 1 µM)
0.853

# query: relative viability of entry O=c1[nH]c2ccccc2n1C1CCN(CCCC(c2ccc(F)cc2)c2ccc(F)cc2)CC1 [Pimozide] + NC(=O)Nc1cc(-c2cccc(F)c2)sc1C(=O)N[C@H]1CCCNC1 [AZD7762] (partner 0.2 µM)
0.538

# query: relative viability of entry Cc1cnc(-c2cnc(NCCNc3ccc(C#N)cn3)nc2-c2ccc(Cl)cc2Cl)[nH]1 + Cc1nc(Nc2ncc(C(=O)Nc3c(C)cccc3Cl)s2)cc(N2CCN(CCO)CC2)n1 [Dasatinib] (partner 0.075 µM)
0.281
